- experimental.system: HLA-A*30:01
- assay.comment: IEDB peptide-MHC binding, purified MHC/competitive/radioactivity; filed as Kd, often an IC50 or EC50 that approximates it; bounds were set here for any values at or beyond the usual limits of such assays
- test.conditions: source organism: Lymphocytic choriomeningitis virus (strain Armstrong)
pKd: −log10 of the molar value.

# sequence.chain, pKd
records = [
    ("KTGESSRCY", 5.45),
    ("DSEEYHLLY", 4.95),
]

---

- experimental.system: HLA-A*23:01
- assay.comment: IEDB peptide-MHC binding, purified MHC/competitive/fluorescence; filed as Kd, often an IC50 or EC50 that approximates it; bounds were set here for any values at or beyond the usual limits of such assays
- test.conditions: source organism: Burkholderia pseudomallei S13
test.readout: Kd

# sequence.chain, result
measured = [
    ("GFYLSGHLF", "≤ 0.1 nM"),
]

---

- experimental.system: HLA-B*07:02
- assay.comment: IEDB peptide-MHC binding, purified MHC/direct/fluorescence; filed as Kd, often an IC50 or EC50 that approximates it; bounds were set here for any values at or beyond the usual limits of such assays
- test.conditions: source organism: Camelpox virus CMS

# sequence.chain, Kd / nM
rows = [
    ("MPAYIRNTL", 6.6),
]

---

- experimental.system: HLA-B*44:03
- assay.comment: IEDB peptide-MHC binding, purified MHC/competitive/radioactivity; filed as Kd, often an IC50 or EC50 that approximates it; bounds were set here for any values at or beyond the usual limits of such assays
- test.conditions: source organism: SARS coronavirus Tor2
pKd: −log10 of the molar value.
test.readout: pKd

# sequence.chain, operator.symbol, recorded.number
rows = [
    ("SELVIGAVI", "=", 6.37),
    ("HECFVKRVDW", "=", 6.73),
    ("VETFYPKLQA", "≤", 4.38),
    ("IDYVPLKSAT", "≤", 4.15),
    ("KDYMSLSEQL", "≤", 4.53),
    ("KELSPRWYF", "=", 7.28),
    ("KETLYRIDG", "≤", 4.51),
    ("EETFKLSYGI", "=", 6.89),
    ("WEPEFYEAMY", "=", 6.42),
    ("AEIVDTVSAL", "=", 6.98),
    ("NELSLALGL", "=", 7.55),
    ("TEGLCVDIPG", "≤", 4.46),
    ("HEDLMAAYV", "=", 5.30),
    ("EEAIRHVRAW", "=", 7.85),
    ("EEHFVETVSL", "=", 6.84),
]

---

- experimental.system: HLA-A*02:01
- assay.comment: IEDB peptide-MHC binding, purified MHC/direct/fluorescence; filed as Kd, often an IC50 or EC50 that approximates it; bounds were set here for any values at or beyond the usual limits of such assays
- test.conditions: source organism: Salmonella enterica subsp. enterica serovar Typhimurium

# sequence.chain, Kd
data = [
    ("NSDYMMWVG", "≥ 20 µM"),
]

---

- experimental.system: HLA-A*03:01
- assay.comment: IEDB peptide-MHC binding, purified MHC/competitive/radioactivity; filed as Kd, often an IC50 or EC50 that approximates it; bounds were set here for any values at or beyond the usual limits of such assays
- test.conditions: source organism: Mammarenavirus juninense
test.readout: Kd (µM)

# sequence.chain, recorded.number
measured = [
    ("SKQYIHCFRK", 4.5),
]
